Reported CRF1R Emax values for a set of binders
- TARGET_OR_TEST_SYSTEM: CRF1R
- EXPERIMENT_DESCRIPTION: cell-based or functional assay
Ends that are not written are not given here.
Number in %, nothing else.

Below, each entry is followed by its recorded CRF1R Emax result.
> print(dat)
                                     binder      metric  measurement.unit  observed
1  ZGPPISIDVPFQLLRILIEIEKQEKEKQQATTNARILARV (C-terminal amide) [SEQ ID NO 171]  CRF1R Emax                 %        99
2  SQEPPISLDLPTQLLREVLEMTKADQLAQQAHSNRKLLDIA-NH2 [SEQ ID NO 105]  CRF1R Emax                 %       5.2

Now turn to the next binder.
-- ask Consider the binder ZGPPISIDLPQYLLRKMIEIEKQEKEKQQAANNRLLLDTI (C-terminal amide) [SEQ ID NO 27] and give its measured CRF1R Emax.
-- reply 100
